# Test system: hepatitis C replicon
# MEASUREMENT_NOTES: hepatitis C replicon EC50
# Assay type: cell-based
# CONDITION: Hepatitis C virus; Table 3; hepatitis C replicon; read-out: EC50
MEASURED_ATTRIBUTE: EC50

Answered cases to consult:
QUERY_SMILES: COc1ccc2c(O[C@@H]3C[C@H]4C(=O)N[C@]5(C(=O)NS(=O)(=O)C6(C)CC6)C[C@H]5/C=C\CCCCC[C@H](NC(=O)OC(C)(C)C)C(=O)N4C3)cc(-c3nc(C(C)C)cs3)nc2c1C
ASSAY_RESULT: < 10 nM
//
QUERY_SMILES: COc1cccc(N[C@H]2CCCCC/C=C\[C@@H]3C[C@@]3(C(=O)NS(=O)(=O)C3(C)CC3)NC(=O)[C@@H]3C[C@@H](OC(=O)N4Cc5cccc(F)c5C4)CN3C2=O)c1
ASSAY_RESULT: < 10 nM
//
QUERY_SMILES: CO[C@@H]1C[C@H]2C(=O)N[C@]3(C(=O)NCCC(=O)NCc4ccccc4)C[C@H]3/C=C\CCCCC[C@H](NC(=O)OC(C)(C)C)C(=O)N2C1
ASSAY_RESULT: > 100 nM

[Q] hepatitis C replicon / EC50 / Cc1ccc2nc(O[C@@H]3C[C@H]4C(=O)N[C@]5(C(=O)NS(=O)(=O)C6CC6)C[C@H]5/C=C\CCCCC[C@H](NC(=O)OC(C)(C)C)C(=O)N4C3)sc2c1 : value?
[A] < 10 nM

[Q] Now try COc1ccc2oc(O[C@@H]3C[C@H]4C(=O)N[C@]5(C(=O)NS(=O)(=O)C6CC6)C[C@H]5/C=C\CCCCC[C@H](NC(=O)OC(C)(C)C)C(=O)N4C3)nc2c1 .
[A] > 100 nM
